Test Parameters: 298.15 K; 101 kPa; Liquid; Pycnometric method
Numbers after ± are expanded uncertainties.
Endpoint Name: mass density
Field note: include the unit after the figure.

CC(C)CO [2-methyl-1-propanol] | 798.2 ± 0.4 kg/m3
CCCCCC [hexane] | 654.9 ± 0.4 kg/m3
CCCCCCCC [octane] | 698.6 ± 0.4 kg/m3

Now for a further compound.
Return reported mass density; argument: CCCCCCCCCC [decane] 725.9 ± 0.4 kg/m3

* * *

Test Parameters: 298.15 K; 101 kPa; Liquid; Capillary tube (Ostwald / Ubbelohde) method
Endpoint Name: viscosity (mPa·s)
Form entry: value (mPa·s) — number only.

Worked examples, 3 compounds total:
CCCCCCCC [octane] | 0.518
CCCCCCCCCC [decane] | 0.845
CC(C)CO [2-methyl-1-propanol] | 3.404

Now for a further compound.
Return reported viscosity; argument: CCCCCC [hexane] 0.313

All values here come from the NIST ThermoML archive (doi:10.1021/je060389r).
